Ref: patent US5962504A

Give Ki for every item shown.
molecular target: PKC; assay: ability of representative compounds to activate PKC (Ki, Table 1; procedure similar to Kozikowski et al. J. Med. Chem. 1997); conditions: read-out: Ki ± SEM
One number for each entry, in µM.

Example results:
compound	target_of_assay	uom	Ki
CCCCCC(=O)Oc1ccc([C@@H]2[C@@H](C(C)C)C(=O)N[C@@H]2CO)c2ccccc12 [Compound 11b]	PKC	µM	0.5
CC(C)[C@H]1C(=O)N[C@H](CO)[C@@H]1c1cccc2ccccc12 [Compound 11a]	PKC	µM	5.5
CC(C)[C@H]1C(=O)N[C@H](CO)[C@@H]1c1ccccc1	PKC	µM	129

Moving on to the next compound.
Exam item: Bench note: what Ki did CCCCCCCCCc1ccc([C@@H]2[C@@H](C(C)C)C(=O)N[C@@H]2CO)cc1 show?
Marked response: 2.3
